Hello, the source for this data is PubChem BioAssay (NCI), in case you need it.

- Test system: OVCAR-3 ovarian
- Protocol Notes: NCI tumour cell line growth inhibition, 48 h
Measured Parameter: TGI

Solved entries:
Consider the compound O=C1c2cc3c(cc2[C@@H]2C(O)[C@H]4O[C@H]4C4CCN1C42)OCO3 (some centres undefined) tested on OVCAR-3 ovarian; state its TGI.
> 37.5 µM

Fill: TGI (OVCAR-3 ovarian) for this compound N#CCCC1(CCC#N)S(=O)(=O)OCCOS1(=O)=O
> 100 µM

Specify TGI for CC(CC(=O)N1C2CC3CCC2(CS1(=O)=O)C3(C)C)[Si](C)(C)C (centres undefined) , system OVCAR-3 ovarian.
> 100 µM

With those in mind, consider the next compound.
State recorded TGI with OVCAR-3 ovarian, entry C=CC(C)(C)NC(C(=O)N1CCC[C@H]1c1nc(-c2nc(C(=O)OCC=C(C)C)c(C)o2)c(C)o1)C(C)C (some centres undefined) , no comment.
> 100 µM
